Catalogue of binders with associated ELISA signal, Free Fc 62.5 pmol
TARGET SYSTEM: T1, biotin-labeled human CD137 fused to human IgG1 Fc fragment (human, biotin-labeled)
T1 construct: also called human CD137-Fc; biotin-human CD137-Fc
ASSAY EXPLANATION: bead ELISA, IgG on biotin-human CD137-Fc; control competitor: free human IgG1 Fc 62.5 pmol

# BINDER, ELISA signal, Free Fc 62.5 pmol
rows = [
    ("dBBDu186/L098 (antibody, V domains shown, Purified IgG; Fab genes of the panning output converted into IgG format) VH: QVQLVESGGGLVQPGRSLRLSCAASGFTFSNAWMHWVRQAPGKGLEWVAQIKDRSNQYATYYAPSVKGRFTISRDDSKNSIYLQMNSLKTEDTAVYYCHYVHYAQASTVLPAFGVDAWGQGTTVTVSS VL: DIVMTQSPLSLPVTPGEPASISCAASEELVHINRYIFLHWYQQKPGQAPRLLIYKVSNRFIGVPDRFSGSGSGTDFTLKISRVEAEDVGVYYCAQGSQVPFTFGQGTKLEIK", 115000),
    ("dBBDu189/L119 (antibody, V domains shown, Purified IgG; Fab genes of the panning output converted into IgG format) VH: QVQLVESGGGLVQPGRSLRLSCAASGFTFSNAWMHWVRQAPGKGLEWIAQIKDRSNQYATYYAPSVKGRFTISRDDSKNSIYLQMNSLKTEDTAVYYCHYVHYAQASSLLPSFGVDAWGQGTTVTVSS VL: DIVMTQSPLSLPVTPGEPASISCTASQELVHINRFIFLHWYQQKPGQAPRLLIYKVSNRFIGVPDRFSGSGSGTDFTLKISRVEAEDVGVYYCAQGSQVPFTFGQGTKLEIK", 88100),
    ("dBBDu167/L094 (antibody, V domains shown, Purified IgG; Fab genes of the panning output converted into IgG format; also called dBBDu_167/dBBDu.L094) VH: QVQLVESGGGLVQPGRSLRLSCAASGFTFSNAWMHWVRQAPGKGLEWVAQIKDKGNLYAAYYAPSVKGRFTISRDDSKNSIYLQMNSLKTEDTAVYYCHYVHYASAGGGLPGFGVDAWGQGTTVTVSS VL: DIVMTQSPLSLPVTPGEPASISCYASEELLHINRHIYLHWYQQKPGQAPRLLIYKVYNRFNGVPDRFSGSGSGTDFTLKISRVEAEDVGVYYCAQGSSVPFTFGQGTKLEIK", 141000),
]
